Measured pIC50, listed per entry for reference.
Target: CAv1.2 (Homo sapiens, UniProt Q13936)
Sequence (Q13936 whole entry): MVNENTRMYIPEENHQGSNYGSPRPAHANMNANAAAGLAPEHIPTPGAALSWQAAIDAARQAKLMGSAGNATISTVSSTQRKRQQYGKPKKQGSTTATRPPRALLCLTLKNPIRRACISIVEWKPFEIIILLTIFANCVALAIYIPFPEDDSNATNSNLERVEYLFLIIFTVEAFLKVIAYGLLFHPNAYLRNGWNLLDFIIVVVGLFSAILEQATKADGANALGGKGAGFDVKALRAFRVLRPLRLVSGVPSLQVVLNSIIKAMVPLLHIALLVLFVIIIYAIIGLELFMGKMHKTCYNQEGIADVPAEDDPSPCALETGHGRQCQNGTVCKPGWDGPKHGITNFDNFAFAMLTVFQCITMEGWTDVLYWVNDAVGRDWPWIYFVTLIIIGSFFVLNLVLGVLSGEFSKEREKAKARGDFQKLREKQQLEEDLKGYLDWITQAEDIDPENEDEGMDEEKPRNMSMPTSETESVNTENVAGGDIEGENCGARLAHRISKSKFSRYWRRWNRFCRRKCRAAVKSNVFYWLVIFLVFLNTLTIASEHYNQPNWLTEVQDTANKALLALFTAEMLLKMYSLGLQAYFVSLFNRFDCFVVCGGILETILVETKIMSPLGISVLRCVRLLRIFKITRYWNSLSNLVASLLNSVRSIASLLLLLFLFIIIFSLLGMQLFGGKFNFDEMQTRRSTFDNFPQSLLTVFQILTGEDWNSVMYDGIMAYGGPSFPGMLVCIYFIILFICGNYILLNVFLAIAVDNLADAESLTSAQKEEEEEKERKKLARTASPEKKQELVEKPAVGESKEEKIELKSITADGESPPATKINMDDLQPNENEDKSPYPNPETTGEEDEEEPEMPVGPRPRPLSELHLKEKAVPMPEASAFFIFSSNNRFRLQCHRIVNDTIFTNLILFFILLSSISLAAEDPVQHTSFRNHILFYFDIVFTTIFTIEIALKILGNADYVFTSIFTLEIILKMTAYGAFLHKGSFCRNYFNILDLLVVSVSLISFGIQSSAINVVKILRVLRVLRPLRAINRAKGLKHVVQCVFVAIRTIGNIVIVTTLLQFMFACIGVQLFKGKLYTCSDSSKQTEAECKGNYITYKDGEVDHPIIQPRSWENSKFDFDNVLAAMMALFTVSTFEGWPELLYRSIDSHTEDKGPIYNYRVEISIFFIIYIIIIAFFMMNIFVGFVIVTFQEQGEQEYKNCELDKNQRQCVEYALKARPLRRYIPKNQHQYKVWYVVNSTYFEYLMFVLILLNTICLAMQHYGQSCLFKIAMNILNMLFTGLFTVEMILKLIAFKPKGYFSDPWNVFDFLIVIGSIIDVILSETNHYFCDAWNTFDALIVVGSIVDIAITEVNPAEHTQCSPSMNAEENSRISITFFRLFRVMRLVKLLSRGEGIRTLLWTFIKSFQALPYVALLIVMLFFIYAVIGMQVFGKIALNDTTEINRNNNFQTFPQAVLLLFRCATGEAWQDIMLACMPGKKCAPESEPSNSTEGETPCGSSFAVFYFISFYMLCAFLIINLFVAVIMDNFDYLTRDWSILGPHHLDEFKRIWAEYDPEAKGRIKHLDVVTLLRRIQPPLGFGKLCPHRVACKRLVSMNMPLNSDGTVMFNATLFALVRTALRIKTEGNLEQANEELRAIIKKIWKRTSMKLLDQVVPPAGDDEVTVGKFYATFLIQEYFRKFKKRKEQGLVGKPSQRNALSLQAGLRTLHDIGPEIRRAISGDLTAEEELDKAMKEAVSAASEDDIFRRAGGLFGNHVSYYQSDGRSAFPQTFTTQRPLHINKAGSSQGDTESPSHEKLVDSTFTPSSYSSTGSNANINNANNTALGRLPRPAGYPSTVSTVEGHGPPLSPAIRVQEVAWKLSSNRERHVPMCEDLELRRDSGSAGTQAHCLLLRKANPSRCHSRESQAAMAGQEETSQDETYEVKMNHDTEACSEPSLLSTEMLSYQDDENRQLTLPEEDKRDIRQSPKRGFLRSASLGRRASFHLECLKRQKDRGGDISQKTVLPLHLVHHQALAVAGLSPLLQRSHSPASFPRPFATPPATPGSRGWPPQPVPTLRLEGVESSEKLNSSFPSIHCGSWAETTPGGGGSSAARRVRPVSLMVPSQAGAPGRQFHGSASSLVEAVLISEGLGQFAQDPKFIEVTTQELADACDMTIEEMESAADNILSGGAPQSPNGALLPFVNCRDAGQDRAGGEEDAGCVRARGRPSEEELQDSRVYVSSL
Sequence (P54289 25-1103 partner): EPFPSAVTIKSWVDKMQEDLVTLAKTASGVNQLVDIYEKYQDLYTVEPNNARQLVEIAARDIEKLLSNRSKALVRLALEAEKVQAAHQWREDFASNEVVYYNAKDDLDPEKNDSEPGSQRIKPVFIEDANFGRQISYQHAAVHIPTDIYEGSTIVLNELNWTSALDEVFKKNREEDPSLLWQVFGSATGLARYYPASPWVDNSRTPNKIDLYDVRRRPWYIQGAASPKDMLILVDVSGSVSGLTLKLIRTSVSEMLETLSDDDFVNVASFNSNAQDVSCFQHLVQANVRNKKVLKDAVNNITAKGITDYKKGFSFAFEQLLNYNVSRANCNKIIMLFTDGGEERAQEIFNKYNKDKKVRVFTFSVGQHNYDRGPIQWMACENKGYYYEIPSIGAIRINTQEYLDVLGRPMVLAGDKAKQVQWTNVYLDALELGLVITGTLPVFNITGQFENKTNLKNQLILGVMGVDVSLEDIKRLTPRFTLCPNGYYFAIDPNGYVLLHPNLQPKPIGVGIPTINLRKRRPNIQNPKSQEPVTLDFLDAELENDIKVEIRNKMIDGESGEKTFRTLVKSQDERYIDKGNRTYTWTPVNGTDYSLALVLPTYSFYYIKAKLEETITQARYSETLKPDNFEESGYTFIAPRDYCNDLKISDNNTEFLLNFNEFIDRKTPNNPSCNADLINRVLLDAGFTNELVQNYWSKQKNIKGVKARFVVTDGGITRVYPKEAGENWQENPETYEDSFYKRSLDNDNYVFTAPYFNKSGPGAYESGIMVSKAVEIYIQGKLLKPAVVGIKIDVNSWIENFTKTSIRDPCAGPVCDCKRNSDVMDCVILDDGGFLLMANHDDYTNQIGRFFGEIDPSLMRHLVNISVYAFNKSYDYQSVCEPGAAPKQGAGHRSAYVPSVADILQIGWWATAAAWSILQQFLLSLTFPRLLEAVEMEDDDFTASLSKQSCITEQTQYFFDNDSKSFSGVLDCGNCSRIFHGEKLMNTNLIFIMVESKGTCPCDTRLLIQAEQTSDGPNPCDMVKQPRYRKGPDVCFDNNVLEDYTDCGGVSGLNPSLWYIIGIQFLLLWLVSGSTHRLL
Sequence (Q08289 whole entry partner): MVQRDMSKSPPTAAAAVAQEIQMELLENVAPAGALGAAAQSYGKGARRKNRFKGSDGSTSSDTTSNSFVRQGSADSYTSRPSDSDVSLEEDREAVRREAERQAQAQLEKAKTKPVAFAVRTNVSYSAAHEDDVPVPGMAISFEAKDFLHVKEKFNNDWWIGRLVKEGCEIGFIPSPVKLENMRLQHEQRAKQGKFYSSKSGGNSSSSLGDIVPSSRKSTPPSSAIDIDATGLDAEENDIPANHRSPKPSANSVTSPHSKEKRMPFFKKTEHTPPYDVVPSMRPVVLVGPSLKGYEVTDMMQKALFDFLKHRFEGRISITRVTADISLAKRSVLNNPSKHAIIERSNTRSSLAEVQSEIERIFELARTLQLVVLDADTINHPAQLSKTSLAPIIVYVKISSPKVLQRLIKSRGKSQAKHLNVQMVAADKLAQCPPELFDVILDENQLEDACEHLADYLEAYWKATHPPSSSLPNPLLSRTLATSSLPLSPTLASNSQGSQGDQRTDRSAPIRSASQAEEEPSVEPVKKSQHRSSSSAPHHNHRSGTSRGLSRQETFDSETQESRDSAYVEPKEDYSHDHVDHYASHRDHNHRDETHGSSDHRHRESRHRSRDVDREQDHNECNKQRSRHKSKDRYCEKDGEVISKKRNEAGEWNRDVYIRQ
Test: L-type (CAv1.2) channel blocking, FLIPR data (Table 6)
Assay type: cell-based
Conditions: closed state, read-out: CAv1.2 IC50 Closed
pIC50: −log10 of the molar value.

MOLECULE | pIC50
CC(C)(C[C@H]1C[C@@H](NC(=O)[C@@H]2CCCC[C@H]2N)C1)S(=O)(=O)c1cccc(C(F)(F)F)c1 | ≤ 5.00
CC(C)S(=O)(=O)c1cc(C(F)(F)F)cnc1C(=O)NC[C@H]1C[C@H](S(=O)(=O)c2cccc(Cl)c2)C1 | ≤ 5.00
CC(C)([C@H]1C[C@@H](CNc2cc(C(F)(F)F)n[nH]2)C1)S(=O)(=O)c1cccc(C(F)(F)F)c1 | 5.09
O=C(c1ccc(OCC(F)(F)F)nc1)N1CC(CS(=O)(=O)c2cc(F)cc(C(F)(F)F)c2)C1 | ≤ 5.00
O=C(NC[C@H]1C[C@H](S(=O)(=O)c2cccc(Cl)c2)C1)c1ccc(C(F)(F)F)cc1 | ≤ 5.00
CC(C)([C@H]1C[C@@H](C(=O)Nc2ccc(C(F)(F)F)cn2)C1)S(=O)(=O)c1cccc(C(F)(F)F)c1 | 5.45
CC(C)([C@H]1C[C@H](C(=O)Nc2ccc(C(F)(F)F)cn2)C1)S(=O)(=O)c1cccc(C(F)(F)F)c1 | 5.43
CC(C)([C@H]1C[C@H](CNc2ccc(Cl)c(F)c2)C1)S(=O)(=O)c1cccc(C(F)(F)F)c1 | 5.33
CC(C)([C@H]1C[C@H](C(=O)Nc2ccc(C(F)(F)F)cc2Cl)C1)S(=O)(=O)c1cccc(C(F)(F)F)c1 | ≤ 5.00
CC(C)(C[C@H]1C[C@@H](NC(=O)[C@@H]2CCCC[C@@H]2N)C1)S(=O)(=O)c1cccc(C(F)(F)F)c1 | ≤ 5.00
N[C@H]1CCCC[C@@H]1C(=O)NC[C@H]1C[C@H](S(=O)(=O)c2cccc(Cl)c2)C1 | ≤ 5.00
CC(C)([C@H]1C[C@H](C(=O)Nc2ccc(C(F)(F)F)cc2)C1)S(=O)(=O)c1cccc(C(F)(F)F)c1 | 5.17
CC(C)(C[C@H]1C[C@H](NC(=O)[C@H]2CCCC[C@@H]2N)C1)S(=O)(=O)c1cccc(C(F)(F)F)c1 | ≤ 5.00
Cn1nc(C(F)(F)F)cc1C(=O)N1CC(CS(=O)(=O)c2cc(F)cc(C(F)(F)F)c2)C1 | ≤ 5.00
CC(C)([C@H]1C[C@H](CNc2cc(C(F)(F)F)n[nH]2)C1)S(=O)(=O)c1cccc(C(F)(F)F)c1 | 5.07
Cn1nc(C(F)(F)F)cc1NC(=O)[C@H]1C[C@H](C(C)(C)S(=O)(=O)c2cccc(C(F)(F)F)c2)C1 | 5.07
O=C(NC[C@H]1C[C@H](S(=O)(=O)c2cccc(Cl)c2)C1)c1ccc(Cl)cn1 | ≤ 5.00
O=C(NC[C@H]1C[C@H](S(=O)(=O)c2cccc(Cl)c2)C1)c1ccc(C(F)(F)F)cn1 | ≤ 5.00
CC(C)([C@H]1C[C@@H](C(=O)Nc2cc(C(F)(F)F)n[nH]2)C1)S(=O)(=O)c1cccc(C(F)(F)F)c1 | ≤ 5.00

====

Target: human α1G T-type channels (Homo sapiens, UniProt O43497)
Assay: T-type calcium channel block, whole cell patch clamp, α1G
Details: HEK cells stably expressing human α1G; mainly non-inactivated protocol; values above 10,000 nM represented as 10000
REPORTED_ENDPOINT: log10 of IC50 (log10 of the value in µM)

MOLECULE | TEST_TARGET | log10 of IC50
O=C(N[C@H]1CC[C@@](F)(S(=O)(=O)c2cc(F)cc(C(F)(F)F)c2)CC1)c1ccc(F)c(C(F)(F)F)c1 | human α1G T-type channels (Homo sapiens, UniProt O43497) | 0.38
CC(C)(CNS(=O)(=O)c1ccc2ncsc2c1)S(=O)(=O)c1cccc(C(F)(F)F)c1 | human α1G T-type channels (Homo sapiens, UniProt O43497) | -0.38
CC(C)(C)NC(=O)CNC[C@H]1C[C@H](S(=O)(=O)c2cccc(C(F)(F)F)c2)C1 | human α1G T-type channels (Homo sapiens, UniProt O43497) | 0.73
CC(C)(CCNC(=O)c1ccc(C(F)(F)F)cn1)S(=O)(=O)c1cccc(C(F)(F)F)c1 | human α1G T-type channels (Homo sapiens, UniProt O43497) | -0.89
CC(C)S(=O)(=O)c1cc(C(F)(F)F)cnc1C(=O)NCC(C)(C)S(=O)(=O)c1cccc(C(F)(F)F)c1 | human α1G T-type channels (Homo sapiens, UniProt O43497) | -1.15
CC(C)(CCNC(=O)c1cn2ccc(C(F)(F)F)cc2n1)S(=O)(=O)c1cccc(C(F)(F)F)c1 | human α1G T-type channels (Homo sapiens, UniProt O43497) | -0.42
